biological target: CYP3A4 (Homo sapiens, UniProt P08684); construct: incubated with human liver microsomes (mixed gender, pool of 50 donors, 0.1 mg/mL); from tissue; host or cells: human liver microsomes, pool of 50 donors; assay: CYP450 inhibition in human liver microsomes, CYP3A4; assay type: in vitro ADME; conditions: both sexes, human liver microsomes, pH 7.4, probe midazolam (midazolam hydroxylase activity), 3 μM, Exp. 1, read-out: CYP3A4 (midazolam hydroxylase) % of control (Exp. 1)
Sequence (P08684 whole entry): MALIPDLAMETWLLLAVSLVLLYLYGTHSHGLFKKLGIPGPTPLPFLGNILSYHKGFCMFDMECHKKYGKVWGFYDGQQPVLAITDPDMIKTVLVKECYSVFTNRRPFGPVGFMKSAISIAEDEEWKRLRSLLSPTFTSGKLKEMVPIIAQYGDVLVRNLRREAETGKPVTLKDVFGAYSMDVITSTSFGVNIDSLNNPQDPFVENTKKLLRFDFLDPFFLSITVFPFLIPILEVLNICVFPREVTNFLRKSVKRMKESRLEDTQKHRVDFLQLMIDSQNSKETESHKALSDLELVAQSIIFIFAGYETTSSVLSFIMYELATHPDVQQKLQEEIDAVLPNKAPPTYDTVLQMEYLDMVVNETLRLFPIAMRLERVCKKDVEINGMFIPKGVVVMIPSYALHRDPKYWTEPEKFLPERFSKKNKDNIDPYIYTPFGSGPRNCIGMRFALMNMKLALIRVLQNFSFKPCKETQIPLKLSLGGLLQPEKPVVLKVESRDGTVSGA
parameter: activity at 3 µM (%)
Write the number in % without appending the unit.

Quick check: activity at 3 µM of COc1ccc2ncc(F)c(CC[C@@]3(O)CO[C@@H]4[C@@H](NCc5cc6c(cn5)OCCO6)CO[C@@H]43)c2n1 ? 74.3

---

system: USA300 isolate of MRSA; test: MIC, CLSI broth microdilution, USA300 MRSA; assay type: cell-based; settings: Staphylococcus aureus; CLSI broth microdilution; ciprofloxacin-resistant MRSA; read-out: MIC USA300
Here the recorded MIC is given for each entry.

Examples with answers:
# compound, MIC
data = [
    ("COc1ccc2nccc(CC[C@@]3(O)CO[C@@H]4[C@@H](NCc5ccc(C)cc5)CO[C@@H]43)c2c1", "> 8 mg/L"),
    ("COc1ccc2nccc(CC[C@@]3(O)CO[C@@H]4[C@@H](NCc5ccccc5)CO[C@@H]43)c2c1", "> 8 mg/L"),
]

Consider the record given below.
Quick check: MIC of COc1ccc2ncc(F)c(CCC3OCC(NCc4ccc5c(c4)OCCO5)CO3)c2n1 (stereo not drawn) ? 0.125 to 0.25 mg/L
